The measurements presented in this section are drawn from patent US20260125382A1.

Molecular target: CDK9 (Homo sapiens)
Construct: endogenous in cells; host or cells: MDA-MB-231
Sequence (P50750 whole entry): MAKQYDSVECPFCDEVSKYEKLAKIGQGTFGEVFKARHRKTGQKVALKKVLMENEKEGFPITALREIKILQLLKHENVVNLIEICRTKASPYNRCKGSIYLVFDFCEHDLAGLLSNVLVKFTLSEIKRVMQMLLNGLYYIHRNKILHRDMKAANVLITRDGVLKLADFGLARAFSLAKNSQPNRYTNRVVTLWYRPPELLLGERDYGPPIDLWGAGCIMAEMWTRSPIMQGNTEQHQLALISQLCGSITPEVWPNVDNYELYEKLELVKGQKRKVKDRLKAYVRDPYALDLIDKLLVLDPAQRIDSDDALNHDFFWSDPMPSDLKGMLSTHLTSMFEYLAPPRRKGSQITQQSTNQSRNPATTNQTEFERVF
Test: CDK protein degradation activity (Western blotting), CDK9
Assay type: cell-based
Details: MDA-MB-231 cells, 10 μM, 16 hours, Western blot
Each entry below carries its recorded Enzyme degradation CDK9 (% remaining) @ 10 μM.
Response body: numeric value in %, unit text excluded.

COMPOUND	RESULT UNIT	READING
Cc1cccc(C(=O)NC2CC(n3cnc4c(Nc5ccc(N6CCN(C(=O)COc7cccc8c7C(=O)N([C@H]7CCC(=O)NC7=O)C8=O)CC6)cc5)ncnc43)C2)n1 (stereo partly shown)	%	30
O=C1CC[C@@H](c2ccc(OCC(=O)N3CCC(CCCN4CCN(c5ccc(Nc6ncnc7c6ncn7[C@H]6C[C@@H](NC(=O)Cc7ccccc7)C6)cc5)CC4)CC3)cc2)C(=O)N1	%	0
Cc1cccc(C(=O)NC2CC(n3cnc4c(NC5CCN(CCOC6CCN(c7cccc8c7C(=O)N([C@H]7CCC(=O)NC7=O)C8=O)CC6)CC5)ncnc43)C2)n1 (stereo partly shown)	%	20
CC(=O)N[C@H]1C[C@@H](n2cnc3c(NCC4CCN(CC5CCN(C(=O)CNc6ccc7c(c6)C(=O)N([C@H]6CCC(=O)NC6=O)C7=O)CC5)CC4)ncnc32)C1	%	40
Cc1cccc(C(=O)N[C@H]2C[C@@H](n3cnc4c(NCc5ccc(OCC6CCN(C(=O)COc7ccc8c(c7)C(=O)N([C@H]7CCC(=O)NC7=O)C8=O)CC6)cc5)ncnc43)C2)n1	%	0
Cc1cccc(C(=O)NC2CC(n3cnc4c(Nc5ccc(N6CCN(CC7CCN(C(=O)CNc8ccc9c(c8)C(=O)N([C@H]8CCC(=O)NC8=O)C9=O)CC7)CC6)cc5)ncnc43)C2)n1 (stereo partly shown)	%	0
Cc1cccc(C(=O)N[C@H]2C[C@@H](n3cnc4c(NC5CCN(CCOC6CCN(C(=O)COc7ccc8c(c7)C(=O)N([C@H]7CCC(=O)NC7=O)C8=O)CC6)CC5)ncnc43)C2)n1	%	0
Cc1cccc(C(=O)NC2CC(n3cnc4c(NC5CCN(C(=O)CC6CCN(c7ccc8c(c7)C(=O)N([C@H]7CCC(=O)NC7=O)C8=O)CC6)CC5)ncnc43)C2)n1 (stereo partly shown)	%	10

Let's switch to this compound now.
Query: Lab note: record Enzyme degradation CDK9 (% remaining) @ 10 μM of `O=C1CC[C@H](N2C(=O)c3cc(F)c(N4CCC(CN5CCC(CCNc6ncnc7c6ncn7[C@H]6C[C@@H](NC(=O)c7c(Cl)cccc7Cl)C6)CC5)CC4)cc3C2=O)C(=O)N1` tested on CDK9 (Homo sapiens).
Reply: 10

====

Biological target: CDK2 (Homo sapiens, UniProt P24941)
Construct: endogenous in cells; host or cells: MDA-MB-231
Test: CDK protein degradation activity (Western blotting), CDK2
Type: cell-based
Settings: MDA-MB-231 cells, 1 μM, 16 hours, Western blot
Hi! Could you tag entries with Enzyme degradation CDK2 (% remaining) @ 1 μM below 20% as Condition met, and those at or above as Condition not met? Much appreciated.

MOLECULE	TARGET DESC	CLASS
O=C1CC[C@H](N2C(=O)c3cccc(OCC(=O)N4CCC(CN5CCN(c6ccc(Nc7ncnc8c7ncn8[C@H]7C[C@@H](NC(=O)c8c(Cl)cccc8Cl)C7)cc6)CC5)CC4)c3C2=O)C(=O)N1	CDK2 (Homo sapiens, UniProt P24941)	Condition met

Query: Given `O=C1CC[C@H](N2C(=O)c3cc(F)c(N4CCC(CN5CCN(c6ccc(Nc7ncnc8c7ncn8[C@H]7C[C@@H](NC(=O)c8cccc(Cl)n8)C7)cc6)CC5)CC4)cc3C2=O)C(=O)N1` , is recorded Enzyme degradation CDK2 (% remaining) @ 1 μM strictly lower than 20%?
Reply: Condition met

Query: # check: Enzyme degradation CDK2 (% remaining) @ 1 μM < 20% for Cc1cccc(C(=O)N[C@H]2C[C@@H](n3cnc4c(NC5CCN(CCC6CCN(C(=O)CNc7cccc8c7C(=O)N(C7CCC(=O)NC7=O)C8=O)CC6)CC5)ncnc43)C2)n1 (stereo partly shown)
Reply: Condition not met

Query: Just wondering, is Enzyme degradation CDK2 (% remaining) @ 1 μM of `O=C1CC[C@H](N2C(=O)C=C(Nc3cccc(CC(=O)N4CCC5(CC4)CC(N4CCN(c6ccc(Nc7ncnc8c7ncn8[C@H]7C[C@@H](NC(=O)Cc8ccccc8)C7)cc6)CC4)C5)c3)C2=O)C(=O)N1` below 20%?
Reply: Condition not met
